Examples of compounds with documented IC50 follow.
- experimental_system: IDH1 R132H (Homo sapiens, UniProt O75874, R132H)
- Sequence (O75874 whole entry R132H): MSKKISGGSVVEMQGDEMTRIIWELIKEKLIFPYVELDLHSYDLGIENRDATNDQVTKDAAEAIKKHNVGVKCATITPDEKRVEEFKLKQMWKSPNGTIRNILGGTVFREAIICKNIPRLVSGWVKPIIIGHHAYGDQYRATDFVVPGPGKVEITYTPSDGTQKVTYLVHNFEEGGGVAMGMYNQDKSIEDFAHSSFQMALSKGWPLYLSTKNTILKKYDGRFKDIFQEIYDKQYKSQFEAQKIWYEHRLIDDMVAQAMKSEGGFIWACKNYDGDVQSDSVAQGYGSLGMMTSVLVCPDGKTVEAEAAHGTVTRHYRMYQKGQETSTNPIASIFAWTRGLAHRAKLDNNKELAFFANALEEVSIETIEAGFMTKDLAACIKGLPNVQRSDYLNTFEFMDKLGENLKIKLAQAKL
- experiment_description: Assay for IDH1 R132H inhibitors (NADPH/aKG, resazurin detection)
- Type: biochemical
- condition_summary: Table 3; enzyme assay, 50 minutes at room temperature; read-out: IC50 (IDH1 R132H Inhibition)

compound: CC[C@@H]1CN(c2nc(C(C)C)c(-c3ccccc3)cc2C#N)CCN1C(=O)c1ccoc1C
experimental_system: IDH1 R132H (Homo sapiens, UniProt O75874, R132H)
IC50: 1 to 5 µM
//
compound: CC(C)c1cc(-c2ccccc2)nc(N2CCN(C(=O)c3ccco3)C(C)C2)c1C#N (stereo not drawn)
experimental_system: IDH1 R132H (Homo sapiens, UniProt O75874, R132H)
IC50: 5 to 15 µM
//
compound: COCCC(=O)N1CCN(c2nc(C3CC3)c(-c3cncc4ccccc34)cc2C#N)C[C@H]1C
experimental_system: IDH1 R132H (Homo sapiens, UniProt O75874, R132H)
IC50: ≤ 1 µM
//
compound: COCCC(=O)N1CCN(c2nc(C3CC3)c(-c3ccc4[nH]ccc4c3)cc2C#N)C[C@H]1C
experimental_system: IDH1 R132H (Homo sapiens, UniProt O75874, R132H)
IC50: ≤ 1 µM
//
compound: CC(C)c1nc(N2CCN(C(=O)c3c[nH]c4ccccc34)CC2)c(C#N)cc1-c1ccccc1
experimental_system: IDH1 R132H (Homo sapiens, UniProt O75874, R132H)
IC50: 5 to 15 µM
//
compound: CC(C)c1cc(-c2ccccc2)c(C#N)c(N2CCN(C(=O)c3ccoc3)C(c3ccccc3)C2)n1 (stereo not drawn)
experimental_system: IDH1 R132H (Homo sapiens, UniProt O75874, R132H)
IC50: 5 to 15 µM
//
compound: CC(C)c1cc(-c2ccccc2)c(C#N)c(N2CCN(C(=O)c3ccccc3)CC2)n1
experimental_system: IDH1 R132H (Homo sapiens, UniProt O75874, R132H)
IC50: 5 to 15 µM
//
compound: CC(C)c1cc(-c2ccccc2)c(C#N)c(N2C[C@@H](C)N(C(=O)c3ccco3)[C@@H](C)C2)n1
experimental_system: IDH1 R132H (Homo sapiens, UniProt O75874, R132H)
IC50: 1 to 5 µM
//
compound: COCCC(=O)N1CCN(c2nc(C3CC3)c(-c3ccc(F)cc3)c(C)c2C#N)C[C@H]1C
experimental_system: IDH1 R132H (Homo sapiens, UniProt O75874, R132H)
IC50: ≤ 1 µM
//
compound: COCCC(=O)N1CCN(c2nc(C3CC3)c(-c3cc4ccccc4s3)cc2C#N)C[C@H]1C
experimental_system: IDH1 R132H (Homo sapiens, UniProt O75874, R132H)
IC50: 1 to 5 µM
//
compound: CC(C)c1nc(N2CCN(C(=O)c3ccoc3)[C@H](C(C)C)C2)c(C#N)cc1-c1ccccc1
experimental_system: IDH1 R132H (Homo sapiens, UniProt O75874, R132H)
IC50: 1 to 5 µM
//
compound: COCCC(=O)N1CCN(c2nc(C3CC3)c(-c3ccc(F)cc3F)c(C)c2C#N)C[C@H]1C
experimental_system: IDH1 R132H (Homo sapiens, UniProt O75874, R132H)
IC50: ≤ 1 µM
